# System: type 1 fimbriated E. coli (HB101pPKL4); FimH-mediated binding to mannan
# experimental_details: ELISA, inhibition of mannose-specific type 1 fimbriated E. coli adhesion to mannan-coated microtiter plates
# Type: cell-based
# assay_setup: mannan from Saccharomyces cerversiae coated (1 mg × ml^−1, 50 mM aq Na2CO3, pH 9.6), type 1 fimbriated E. coli (HB101pPKL4), OD at 405 nm (reference 492 nm), inhibitor in serial dilutions, sigmoidal fit, average values from three independent assays, S (in parentheses): standard deviation, read-out: IC50 (inhibitor concentration that causes 50% inhibition of bacterial binding to mannan)
pIC50: −log10 of the molar value.

{"molecule": "CO[C@H]1O[C@H](CO)[C@@H](O)[C@H](O)[C@@H]1O [MeMan, methyl α-D-mannopyranoside]", "pIC50": 2.54}
